Can you tell me degree of damage, Matricaria for the items I'm about to list?
System: Matricaria
Assay: Post-emergence test/greenhouse, Matricaria
Type: in vivo
Conditions: greenhouse, 60 g of ai./ha, after three weeks
One number for each entry, in %.

Would you please look over these solved cases?
{"entry.smiles": "CCOc1nn(C(=O)NS(=O)(=O)c2c(C)cccc2C(=O)OC)c(=O)n1C", "observed.result": 100}
{"entry.smiles": "COCc1nn(C(=O)NS(=O)(=O)c2c(C)csc2C(=O)OC)c(=O)n1C1CC1", "observed.result": 90}
{"entry.smiles": "CCSc1nn(C(=O)NS(=O)(=O)c2c(C)cccc2C(=O)OC)c(=O)n1C1CC1", "observed.result": 100}

Please give degree of damage, Matricaria, item by item, for the list that follows.
1. CCOc1nn(C(=O)NS(=O)(=O)c2c(C)csc2C(=O)OC)c(=O)n1C1CC1
2. CCOC(=O)c1cccc(C)c1S(=O)(=O)NC(=O)n1nc(SC)n(C)c1=O

OUT:
1. 100
2. 95
